Assay comment: growth inhibitors of tim23-1 mutant yeast, primary screen, luminescence, uHTS (AID 463212);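 further: temperature-sensitive mutant grown at 25 °C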
Applied conditions: S. cerevisiae tim23-1 growth, BacTiter-Glo luminescence, 24 h; at 20 µM; active compounds read high
Screen size: about 330,000 compounds; about 4,400 (1.3%) were called active. The full list was thinned out, with actives kept by preference.
Mark yes for reported inhibition of 6% or greater; mark no for anything smaller.

Is the recorded value of inhibition equal to or greater than 6% for this compound? `N/C(=N\OC(=O)CC1CCCCC1)c1ccccc1`
yes

Is the recorded value of inhibition equal to or greater than 6% for this compound? `COc1ccc(CCNC(=O)CCCCCNC(=O)N2CCn3c2nc2ccccc23)cc1OC`
yes

Is the recorded value of inhibition equal to or greater than 6% for this compound? CC(C)Cc1ccc(C(C)C(=N)N)cc1 (configuration not stated)
no

Is the recorded value of inhibition equal to or greater than 6% for this compound? `O=S(=O)(Nc1nccs1)c1ccc2c(c1)OCCO2`
yes

Is the recorded value of inhibition equal to or greater than 6% for this compound? `C=CCn1nc(-c2ccccc2)c2c(C)onc2c1=O`
yes

Is the recorded value of inhibition equal to or greater than 6% for this compound? `O=C(CC1CCCCC1)NCc1ccccc1`
yes

Is the recorded value of inhibition equal to or greater than 6% for this compound? `CCOC(=O)/C=C/C(=O)OCC(=O)NC(c1ccccc1)c1ccccc1`
yes

Is the recorded value of inhibition equal to or greater than 6% for this compound? `N/C(=N\OC(=O)CCC1CCCCC1)c1ccccn1`
yes

Is the recorded value of inhibition equal to or greater than 6% for this compound? COC(=O)c1ccc2ccccc2c1OC1OC(CO)C(O)C(O)C1NC(C)=O (configuration not stated)
no

Is the recorded value of inhibition equal to or greater than 6% for this compound? `COCCCNC(=O)C1CCN(c2ccc(N3CCOCC3)nn2)CC1`
yes

Is the recorded value of inhibition equal to or greater than 6% for this compound? `COCCNc1ccc(-c2n[nH]c(=O)c3ccccc23)cc1[N+](=O)[O-]`
no

These measurements were taken from PubChem BioAssay AID463212.
